Entries and their measured inhibition follow.
Target: Serine/threonine-protein kinase TBK1 (Homo sapiens) (UniProt Q9UHD2);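 also: values are mean inhibition of TBK1, screened as part of the GSK published kinase inhibitor set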
Sequence (Q9UHD2 whole entry): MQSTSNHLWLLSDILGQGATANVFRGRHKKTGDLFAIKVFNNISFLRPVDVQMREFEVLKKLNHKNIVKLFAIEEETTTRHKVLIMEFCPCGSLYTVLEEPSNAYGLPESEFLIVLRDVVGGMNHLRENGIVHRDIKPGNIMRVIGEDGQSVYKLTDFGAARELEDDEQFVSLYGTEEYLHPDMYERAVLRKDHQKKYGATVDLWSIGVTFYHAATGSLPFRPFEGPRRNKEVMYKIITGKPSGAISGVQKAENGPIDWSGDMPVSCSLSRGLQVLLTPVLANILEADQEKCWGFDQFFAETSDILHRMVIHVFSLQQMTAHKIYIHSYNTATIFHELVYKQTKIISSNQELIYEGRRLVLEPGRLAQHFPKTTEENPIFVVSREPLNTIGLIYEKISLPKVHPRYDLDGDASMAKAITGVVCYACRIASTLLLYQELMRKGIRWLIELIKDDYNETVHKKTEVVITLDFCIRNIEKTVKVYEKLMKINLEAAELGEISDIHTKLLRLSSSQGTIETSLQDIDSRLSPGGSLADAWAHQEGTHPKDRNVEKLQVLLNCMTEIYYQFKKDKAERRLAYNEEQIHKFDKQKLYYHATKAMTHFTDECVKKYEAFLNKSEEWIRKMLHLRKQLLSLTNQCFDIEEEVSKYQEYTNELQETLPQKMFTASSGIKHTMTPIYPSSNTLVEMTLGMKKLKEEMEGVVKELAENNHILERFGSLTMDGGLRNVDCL
Conditions: at 1 µM
Use % as the unit, but write only the number.

Challenge: For the compound NC(=O)c1sc(-n2cnc3cc(C(F)(F)F)ccc32)cc1OCc1ccccc1Br , what inhibition is on record?
Response given: 1.3

Challenge: For the compound CCn1c(-c2nonc2N)nc2c(C#CCN)ncc(OCCCN)c21 , what inhibition is on record?
Response given: 4.32

Challenge: For the compound COc1cccc(COc2cc(-n3cnc4ccccc43)sc2C(N)=O)c1 , what inhibition is on record?
Response given: 1.53

Challenge: For the compound Nc1nonc1-c1nc2cnccc2n1C1CCCCC1 , what inhibition is on record?
Response given: 24.8

Challenge: For the compound Fc1ccc(-c2ncn(C3CCNCC3)c2-c2ccnc(Oc3ccccc3)n2)cc1 , what inhibition is on record?
Response given: 2.78

Challenge: For the compound CCn1c(-c2nonc2N)nc2c(C#CC(C)(C)O)ncc(OCC3CCNCC3)c21 , what inhibition is on record?
Response given: 44.7

###

System: Tyrosine-protein kinase ABL1 (Homo sapiens), P00519 [H396P]
Conditions: at 0.1 µM
Entries and their measured inhibition follow.
Use % as the unit, but write only the number.

The examples below pair each entry with its known result.
Nc1nonc1-c1nc2cnccc2n1C1CCCCC1 ... -1.2
COc1cc(C=NNc2ncnc3c2cnn3Cc2ccccc2)ccc1O ... 52.3
Fc1ccc(-c2ncn(C3CCNCC3)c2-c2ccnc(Oc3ccccc3)n2)cc1 ... 2.03
NC(=O)c1sc(-n2cnc3cc(C(F)(F)F)ccc32)cc1OCc1ccccc1Br ... 3.11

Challenge: For the molecule CCn1c(-c2nonc2N)nc2c(C#CC(C)(C)O)nc(O[C@@H](CN)c3ccccc3)cc21 , what inhibition is on record?
Response given: -0.59

###

Molecular target: Protein-tyrosine kinase 2-beta (Homo sapiens);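 also: values are the mean percent inhibition of PYK2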
Conditions: at 1 µM
measured_quantity: inhibition (%)
Use % as the unit, but write only the number.

The examples below pair each entry with its known result.
COc1cc(C=NNc2ncnc3c2cnn3Cc2ccccc2)ccc1O ... -1.9
COc1cccc(-n2ncc3c(N/N=C/c4ccncc4)ncnc32)c1 ... 16.5
CCn1c(-c2nonc2N)nc2c(C#CCN)ncc(OCCCN)c21 ... 8.44

Now examine the next entry.
Challenge: For the molecule NC(=O)c1sc(-n2cnc3cc(C(F)(F)F)ccc32)cc1OCc1ccccc1Br , what inhibition is on record?
Response given: -2.94

###

Target: Activated CDC42 kinase 1 (Homo sapiens) (UniProt Q07912);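 also: values are mean inhibition of TNK2, from the GSK PKIS screening dataset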
Sequence (Q07912 whole entry, looked up): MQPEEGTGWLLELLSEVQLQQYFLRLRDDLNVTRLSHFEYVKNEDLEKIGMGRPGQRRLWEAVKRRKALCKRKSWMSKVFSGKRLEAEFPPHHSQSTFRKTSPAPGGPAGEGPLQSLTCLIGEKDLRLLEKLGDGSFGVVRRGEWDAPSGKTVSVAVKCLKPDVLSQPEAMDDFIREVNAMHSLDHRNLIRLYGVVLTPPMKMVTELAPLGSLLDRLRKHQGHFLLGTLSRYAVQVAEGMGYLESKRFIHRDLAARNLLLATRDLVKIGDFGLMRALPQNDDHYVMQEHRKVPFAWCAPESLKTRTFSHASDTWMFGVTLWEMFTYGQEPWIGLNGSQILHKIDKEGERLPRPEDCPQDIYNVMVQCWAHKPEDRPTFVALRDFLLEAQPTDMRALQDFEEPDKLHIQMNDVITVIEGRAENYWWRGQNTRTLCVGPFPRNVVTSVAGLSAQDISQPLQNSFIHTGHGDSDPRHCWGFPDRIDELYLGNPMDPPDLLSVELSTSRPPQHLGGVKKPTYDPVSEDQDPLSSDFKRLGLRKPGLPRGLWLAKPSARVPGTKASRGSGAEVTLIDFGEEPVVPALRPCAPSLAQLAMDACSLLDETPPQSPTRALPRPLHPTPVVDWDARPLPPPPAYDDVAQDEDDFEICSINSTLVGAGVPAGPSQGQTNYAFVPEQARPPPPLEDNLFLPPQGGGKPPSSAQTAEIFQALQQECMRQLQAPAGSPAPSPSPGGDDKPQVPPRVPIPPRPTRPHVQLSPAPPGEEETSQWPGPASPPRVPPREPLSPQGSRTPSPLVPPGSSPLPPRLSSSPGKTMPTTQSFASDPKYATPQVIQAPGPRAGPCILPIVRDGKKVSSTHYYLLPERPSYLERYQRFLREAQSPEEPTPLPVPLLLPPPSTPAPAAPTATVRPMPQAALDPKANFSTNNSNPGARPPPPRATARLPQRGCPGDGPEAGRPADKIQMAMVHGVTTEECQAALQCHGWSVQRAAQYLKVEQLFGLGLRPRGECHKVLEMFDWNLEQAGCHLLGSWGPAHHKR
Conditions: at 0.1 µM
Entries and their measured inhibition follow.
Use % as the unit, but write only the number.

The examples below pair each entry with its known result.
Cc1cc(-c2ccco2)cc(C)c1/C=C/c1cncc(-c2nn[nH]n2)c1 ... 0.58
NC(=O)c1sc(-n2cnc3cc(C(F)(F)F)ccc32)cc1OCc1ccccc1Br ... 0.49

Challenge: For the compound CCn1c(-c2nonc2N)nc2c(C#CCN)ncc(OCCCN)c21 , what inhibition is on record?
Response given: -0.12

###

Tested on: Tyrosine-protein kinase ABL1 (Homo sapiens), P00519 [Q252H]
Settings: at 0.1 µM
Entries and their measured inhibition follow.
Use % as the unit, but write only the number.

COc1cc(C=NNc2ncnc3c2cnn3Cc2ccccc2)ccc1O ... 57.7
COc1cc2c(cc1Nc1nc(Nc3ccsc3C(N)=O)c3cc[nH]c3n1)N(C(=O)CN(C)C)CCC2 ... 1.29
Nc1nonc1-c1nc2cnccc2n1C1CCCCC1 ... -2.14
NS(=O)(=O)c1ccc(-c2ccc3c(NC(=O)C4CC4)n[nH]c3c2)cc1 ... 6.44
COc1cccc(-n2ncc3c(N/N=C/c4ccncc4)ncnc32)c1 ... 87.2
CCn1c(-c2nonc2N)nc2c(C#CCN)ncc(OCCCN)c21 ... -2.52

Challenge: For the molecule NS(=O)(=O)c1ccc(N/C=C2\C(=O)Nc3ccc4ncsc4c32)cc1 , what inhibition is on record?
Response given: 9.38

Challenge: For the molecule Fc1ccc(-c2ncn(C3CCNCC3)c2-c2ccnc(Oc3ccccc3)n2)cc1 , what inhibition is on record?
Response given: 1.55

Challenge: For the molecule NC(=O)c1sc(-n2cnc3cc(C(F)(F)F)ccc32)cc1OCc1ccccc1Br , what inhibition is on record?
Response given: 1.81
